target: SARS-CoV-2 spike protein receptor binding domain (RBD) (SARS-CoV-2, UniProt P0DTC2 319-539); test: ELISA, RBD coated on plate, mAb titrated
EC50 by entry:

{"binder": "C549 (antibody, V domains shown) VH: QVQLVQSGAEVKKPGSSVKVSCKASGGTFSTSAISWVRQAPGQGLEWMGGIIPFFGTPNYAQKFQGRVTIIADESTTTAYMELSGLRFEDSAVYYCARREPYGPRDYYYFFGMDVWGPGTTVTVSS VL: QSALTQPPFASASLGASVTLTCTLSSDYSYYKVDWYQQRPGKGPRFVIRVGPGGIVGSKGDGFPDRFSVLGSGLNRSLTINNIQEEDEGDYHCGADEGSGGTFVGVFGGGTKLTV", "EC50 [ng/mL]": 1.76}
{"binder": "C538 (antibody, V domains shown) VH: QLQLQESGPGLVKPSETLSLTCTVSGGSISSSSYYWAWIRQPPGKGLEWIGNIYYSGITYYSPSLKSRVTISVDTSKNQFSLKLRSVTAADTAVYYCARQHRYGSGSSELLWGQGTLVTVSS VL: QSALTQPPSASGSPGQSVTISCTGTSSDVGSYNYVSWYQQHPGKAPKLMIYEVTKRPSGVPDRFSGSKSGNTASLTVSGLQADDEADYYCSSYAGSSNLIFGGGTKLTVL", "EC50 [ng/mL]": 3.95}
{"binder": "C543 (antibody, V domains shown) VH: QVQLVESGGGVVQPGRSLRLSCTASGFTFSTAGMHWVRQAPGKGLEWVAVISYDGSNKDYADSVKGRFTISRDNSKSTLYLQMNSLRPEDTAVYYCAKDTPGGDDIMTGWGLYGMDVWGQGTTVTVSS VL: DIQMTQSPSSLSASVGDRVTITCRASQSISSYLNWYHQKPGKAPKLLIYAAISLQSGVPSRFSGSGFGTDFTLTISSLQPEDFAIYYCQQSYSTPWTFGQGTKVEIK", "EC50 [ng/mL]": 1.28}
